Data credit: the supplement of paper PMC9262897

System: E. coli TESEC Mtb Alr
Test: growth (OD600 after 10 h); higher = more growth (less inhibition)
Details: arabinose 10000000 nM; compound 0.1 mM; raw OD600 reference: median of DMSO wells […], cell-free background 0.052
Where a name gives a salt, the structure may show the parent alone.
We use 0.07 as the dividing line for growth: on or above the line is Criterion met, below is Criterion not met.

(Q) Decide: growth of CCN(CC)CCNc1ccc(CO)c2sc3ccccc3c(=O)c12 >= 0.07?
(A) Criterion met

(Q) Decide: growth of O=C1NCCN1c1ncc([N+](=O)[O-])s1 >= 0.07?
(A) Criterion not met

(Q) Decide: growth of COC(=O)C1=C(C)NC(C)=C(C(=O)OC2CCCN(Cc3ccccc3)C2)C1c1cccc([N+](=O)[O-])c1 (stereo unspecified) [Benidipine hydrochloride] >= 0.07?
(A) Criterion met

(Q) Decide: growth of NC(=O)c1ccc[n+]([C@@H]2O[C@H](COP(=O)([O-])OP(=O)(O)OC[C@H]3O[C@@H](n4cnc5c(N)ncnc54)[C@H](O)[C@@H]3O)[C@@H](O)[C@H]2O)c1 [Nadide] >= 0.07?
(A) Criterion met

----------
System: E. coli TESEC Mtb Alr
Test: growth (OD600 after 10 h); higher = more growth (less inhibition)
Conditions: arabinose 10000 nM; compound 0.1 mM; raw OD600 reference: median of DMSO wells 0.264, cell-free background 0.041
Where a name gives a salt, the structure may show the parent alone.
Assign growth to each entry below.
I'd appreciate a reply containing only the number, no unit.

(Q) Reported growth, compound O=C(O)c1cccnc1 : ____
(A) 0.304

(Q) Reported growth, compound Nc1ccc(S(=O)(=O)Nc2ccc(Cl)nn2)cc1 : ____
(A) 0.174

(Q) Reported growth, compound CCCCNc1c(C(=O)OCC)c(C)nc2c1cnn2CC [Tracazolate hydrochloride] : ____
(A) 0.13

(Q) Reported growth, compound CC(C)(C)NC[C@H](O)c1ccc(O)c(CO)c1 [Levalbuterol hydrochloride] : ____
(A) 0.273

(Q) Reported growth, compound CC(C)NC[C@H](O)COc1cccc2ccccc12 [(S)-propranolol hydrochloride] : ____
(A) 0.295

(Q) Reported growth, compound CC1CNc2c(cccc2S(=O)(=O)N[C@@H](CCCNC(=N)N)C(=O)N2CC[C@@H](C)C[C@@H]2C(=O)O)C1 (stereo partly drawn) : ____
(A) 0.257

(Q) Reported growth, compound COc1cnc(NS(=O)(=O)c2ccc(N)cc2)nc1 : ____
(A) 0.239

(Q) Reported growth, compound CCCCNc1ccc(C(=O)OCCOCCOCCOCCOCCOCCOCCOCCOCCOC)cc1 [Benzonatate] : ____
(A) 0.252

(Q) Reported growth, compound CC(=O)N[C@@H](CC(=O)N[C@@H](CCC(=O)O)C(=O)O)C(=O)O : ____
(A) 0.284

(Q) Reported growth, compound CC=CC1=C(C(=O)O)N2C(=O)[C@@H](NC(=O)[C@H](N)c3ccc(O)cc3)[C@H]2SC1 : ____
(A) 0.269

(Q) Reported growth, compound Cc1c(C)c2c(c(C)c1O)CCC(C)(COc1ccc(CC3SC(=O)NC3=O)cc1)O2 (stereo not drawn) : ____
(A) 0.0436

(Q) Reported growth, compound Nc1ccc(S(=O)(=O)Nc2ccnn2-c2ccccc2)cc1 : ____
(A) 0.152

(Q) Reported growth, compound CN1CCC(=C2c3ccccc3Sc3ccccc32)CC1 [Pimethixene maleate] : ____
(A) 0.0419

(Q) Reported growth, compound CC(c1cc2ccccc2s1)N(O)C(N)=O (stereo not drawn) : ____
(A) 0.254

(Q) Reported growth, compound N=C(N=C(N)N)N1CCOCC1 [Moroxidine hydrochloride] : ____
(A) 0.269

(Q) Reported growth, compound O=C(Nc1ccc([N+](=O)[O-])cc1Cl)c1cc(Cl)ccc1O [Niclosamide] : ____
(A) 0.0492

(Q) Reported growth, compound CN(C)CCOc1ccc(/C(=C(/CCCl)c2ccccc2)c2ccccc2)cc1 : ____
(A) 0.04

(Q) Reported growth, compound CC(=O)OCC(=O)[C@@]1(O)CC[C@H]2[C@@H]3CCC4=CC(=O)CC[C@]4(C)[C@H]3[C@@H](O)C[C@@]21C [Cortisol acetate] : ____
(A) 0.237
